Please respond with reported fold change of affinity for every item in the list.
Test target: T1, Human CD3eg linker (human)
T1 construct: Single chain: epsilon and gamma subunits of human CD3 joined by a 29-mer linker, Flag-tag at the C-terminus; also called recombinant human CD3
T1 chain: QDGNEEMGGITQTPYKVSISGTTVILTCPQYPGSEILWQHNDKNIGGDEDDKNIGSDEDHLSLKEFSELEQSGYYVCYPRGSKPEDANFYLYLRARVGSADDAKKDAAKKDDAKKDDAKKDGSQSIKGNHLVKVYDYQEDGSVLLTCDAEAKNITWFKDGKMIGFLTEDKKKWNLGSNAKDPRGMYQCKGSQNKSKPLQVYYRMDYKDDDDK
Assay method text: Biacore SPR, vs template H183/L072
Just the number in fold, nothing appended.

Which fold change of affinity is reported for this binder? H183/L072 VH D52aI (antibody, name in Kabat numbering, V domains shown) VH: QVQLVESGGGLVQPGRSLRLSCAASGFTFSNAWMHWVRQAPGKGLEWVAQIKIKGNAYAAYYAPSVKGRFTISRDDSKNSIYLQMNSLKTEDTAVYYCHYVHYASASTVLPAFGVDAWGQGTTVTVSS VL: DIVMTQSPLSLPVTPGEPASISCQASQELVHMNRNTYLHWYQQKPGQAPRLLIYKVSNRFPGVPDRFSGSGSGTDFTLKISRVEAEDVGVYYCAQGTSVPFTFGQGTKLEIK
0

So what does the record say about fold change of affinity for H183/L072 VH H96I (antibody, name in Kabat numbering, V domains shown) VH: QVQLVESGGGLVQPGRSLRLSCAASGFTFSNAWMHWVRQAPGKGLEWVAQIKDKGNAYAAYYAPSVKGRFTISRDDSKNSIYLQMNSLKTEDTAVYYCHYVIYASASTVLPAFGVDAWGQGTTVTVSS VL: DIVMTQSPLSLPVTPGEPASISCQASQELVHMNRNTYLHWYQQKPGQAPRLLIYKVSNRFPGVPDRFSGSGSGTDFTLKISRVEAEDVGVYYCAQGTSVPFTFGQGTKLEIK ?
0

Quick check: fold change of affinity of H183/L072 VH Q50M (antibody, name in Kabat numbering, V domains shown) VH: QVQLVESGGGLVQPGRSLRLSCAASGFTFSNAWMHWVRQAPGKGLEWVAMIKDKGNAYAAYYAPSVKGRFTISRDDSKNSIYLQMNSLKTEDTAVYYCHYVHYASASTVLPAFGVDAWGQGTTVTVSS VL: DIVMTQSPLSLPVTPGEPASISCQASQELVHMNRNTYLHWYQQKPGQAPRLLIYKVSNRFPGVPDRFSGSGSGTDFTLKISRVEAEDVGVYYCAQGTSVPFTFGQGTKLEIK ?
0.1

# get_value(readout='fold change of affinity', item= H183/L072 VH A57N (antibody, name in Kabat numbering, V domains shown) VH: QVQLVESGGGLVQPGRSLRLSCAASGFTFSNAWMHWVRQAPGKGLEWVAQIKDKGNAYANYYAPSVKGRFTISRDDSKNSIYLQMNSLKTEDTAVYYCHYVHYASASTVLPAFGVDAWGQGTTVTVSS VL: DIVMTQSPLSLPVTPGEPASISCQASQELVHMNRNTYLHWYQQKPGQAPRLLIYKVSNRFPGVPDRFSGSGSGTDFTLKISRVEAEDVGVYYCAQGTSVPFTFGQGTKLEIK )
0.7

If you can, please state the reported fold change of affinity value of H183/L072 VH A32I (antibody, name in Kabat numbering, V domains shown) VH: QVQLVESGGGLVQPGRSLRLSCAASGFTFSNIWMHWVRQAPGKGLEWVAQIKDKGNAYAAYYAPSVKGRFTISRDDSKNSIYLQMNSLKTEDTAVYYCHYVHYASASTVLPAFGVDAWGQGTTVTVSS VL: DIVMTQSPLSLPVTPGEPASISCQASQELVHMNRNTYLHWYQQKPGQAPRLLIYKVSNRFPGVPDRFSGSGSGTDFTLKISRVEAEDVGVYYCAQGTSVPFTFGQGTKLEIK .
0.1
